Procedure Text: soluble on expression in E. coli; label from the status in PepcDB or PDB records
Reported Property: soluble on expression in E. coli

# annotated cases, reported soluble on expression in E. coli shown
Please fill in: soluble on expression in E. coli reported for MSRTVIRAQPFFLQAAPGSREQLANPRGFTTFVLEASWSTGLRLDTYVTRGLGDPEQIMREEFQGQYVFWDTDEYLDLIRWMRHYNVSHPGRPTLRFVGNDLGYPGPEAFDQVTSYVTAHRPGVAERIATLYAGLRPARSASAGAWMGQQLTKDLASRRAEAARAERALTLLCASGRPRGSAGRAYNWAVQNATAVAQSFTGYAFPDEEFPERMRYRDQAMADNTAWWLAHTNGRILLASNNGHVAYTSDNPQEFPEPVGAFLRKKLGRKYVSVGLTFSEGSLNALPDFTAGQPQKYAVDPAPAGHNEHTLDQVRHRDFALDLRTAPPAARAWLDTARPTRSYGLYWSDQDPETALGRSYDIVIHLHRVEAARLWAFTSVKDGQSYRLEHHHHHH = not soluble

Please fill in: soluble on expression in E. coli reported for MGHHHHHHGGHMSLIAITGATGQLGHYVIESLMKTVPASQIVAIVRNPAKAQALAAQGITVRQADYGDEAALTSALQGVEKLLLISSSEVGQRAPQHRNVINAAKAAGVKFIAYTSLLHADTSPLGLADEHIETEKMLADSGIVYTLLRNGWYSENYLASAPAALEHGVFIGAAGDGKIASATRADYAAAAARVISEAGHEGKVYELAGDSAWTLTQLAAELTKQSGKQVTYQNLSEADFAAALKSVGLPDGLADMLADSDVGASKGGLFDDSKTLSKLIGHPTTTLAESVSHLFNVNNEGGS = soluble

Please fill in: soluble on expression in E. coli reported for MAGDPMTPTQNVPEDRIQIGQLRSAYGLNGWLWVYSNTEPMSNMFDYLPWFIETKAGWQTVDVKRWKPHGKGLVVSLKNVSDRNAAESLIGSTIWVAKSQLPKTDVDEYYWSDLKGLTVLGLDEEEQEVNLGQIHELFETGANDVMVVRATADSVDAEERMIPWHKDVVQRVDLEAGRIYVNWGVDYLEHHHHHH = soluble

Please fill in: soluble on expression in E. coli reported for MSDSCDGVECGPGKACRMLGGRPRCECAPDCSGLPARLQVCGSDGATYRDECELRAARCRGHPDLSVMYRGRCRK = soluble

Please fill in: soluble on expression in E. coli reported for MEENNKILIYTDSEGLTKIDVILEDETLWLTQAQMCELYQTSKSNVSEHIKHIFEEGELQEDSVVRKFRTTASDGKSYMTAYYNLDMIIALGYRIRSIIATRFRQWATQRLKEYMIKGFALDDERLKQLGGGGYWKELLERIRDIRATEKVLYRQVLEIYATSIDYDPRASVSQEFFKKVQNKIHYAIHGHTAAELIVERADAEKDFMGLLTFKGNQPTLSEARTAKNYLDEKELRAMGQLVSGYLDFAERQAEREQPMTMNDWANYLDRILTMSGEQLLLDSGKVSHTEAMEHATNEYRKYKQRTISDVEQDYLDSIKRIGNIGKKGDKNEN = not soluble

Now consider a different sequence.
Please fill in: soluble on expression in E. coli reported for MGSDKIHHHHHHMTDVHASTQALKPARLLADSPSRFPGESAEYRRARNDLLVEEIELRRHIERVAAQRRALPAGGVVPEDYRFMGEAGPVALSEMFGAHDTLVTYNWMFGPQRVRPCPMCTSLLSAYDGEMPDILQRVAFAVIARAPIERLVAFGKERGWRHLRLYSSGGNSFNRDYAAEDPAGDDHPAFNVFTRSGGTVRHFWAEEMGPSTADPGQDPRGAPDVMPIWTVLDMTPGGRGTDWYPKLEYDTAPG = not soluble
